Assay: CREB reporter modulators under forskolin, primary screen, cell-based, PC12, CRE-LacZ reporter, forskolin-stimulated (AID 1146);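 note: PC12 cells with 6xCRE LacZ reporter stimulated by forskolin 10 µM; beta-galactosidase reporter signal reflecting CREB driven transcription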
Details: luminescence, 4.5 h, higher = more signal, called active from +8 up or from −8 down
Class definitions on z-score: band A = under -0.4, band B = from -0.4 up to 0.3, band C = 0.3 and over

molecule=C=C(/C=C/CNS(=O)(=O)c1ccc(C)cc1)[C@H](O)[C@H]1CCCN1S(=O)(=O)c1ccccc1[N+](=O)[O-] category="band A"
molecule="O=C1C2C=CC(C(O)c3cc(C(F)(F)F)cc(C(F)(F)F)c3)N(Nc3ccc([N+](=O)[O-])cc3)C2C(=O)N1c1ccccc1 (configuration not stated)" category="band B"
molecule=O=C1C[C@@](C(=O)NCC(F)(F)F)(c2ccc([N+](=O)[O-])cc2)[C@@H](c2ccc(CO)cc2)N1C1CCCCC1 category="band B"
molecule=C=CCOC(=O)[C@@H]1[C@H]2C(=O)O[C@H](c3ccccc3)[C@H](c3ccccc3)N2[C@H](c2ccc(OCCOC(=O)[C@H]3C[C@H]4C(=O)N[C@@H](CC(C)C)C(=O)N4[C@H]3c3ccc(O)cc3)cc2)[C@@]12C(=O)Nc1ccc(I)cc12 category="band A"
molecule="NC(=O)N1C(=O)C2C(C1=O)C1C=C(c3ccc(CO)cc3)C2C(C2CC2)N1Cc1sc2ccccc2c1Cl (configuration not stated)" category="band A"
molecule=C[C@@H]1ON(c2ccc(C(=O)OC(C)(C)C)cc2)[C@H](c2ccc(Br)cc2)[C@H]1C(=O)N1C(=O)OC[C@H]1Cc1ccccc1 category="band B"
molecule="CN1C2C=C(CCCO)C(C3C(=O)N(C(N)=O)C(=O)C32)C1c1cccs1 (configuration not stated)" category="band B"
molecule=C[N+](C)(C)CCCC[C@@H]1NC(=O)[C@@H]2C[C@H](C(=O)O)[C@H](c3ccc(O)cc3)N2C1=O category="band C"

Q. Place this molecule in its band: COC(=O)[C@]1(CCS(=O)(=O)c2ccccc2)N=C(c2ccc(OCCCO)cc2)O[C@@H]1c1ccccc1CN=[N+]=[N-]
A. band A

Q. The entry to classify is O=C(O)[C@H]1C[C@H]2C(=O)N3CCC[C@H]3C(=O)N2[C@H]1c1cccc(OCCO)c1 ; which class holds it?
A. band B

Q. Band for C=CCOC(=O)[C@H]1[C@@H]2C(=O)O[C@@H](c3ccccc3)[C@@H](c3ccccc3)N2[C@@H](c2ccc(OCCOC(=O)[C@H]3C[C@H]4C(=O)N[C@@H](CCCC[N+](C)(C)C)C(=O)N4[C@H]3c3cccc(OCCO)c3)cc2)[C@]12C(=O)Nc1ccc(I)cc12 ?
A. band B

Q. Which class holds COC(=O)C[C@H]1O[C@]2(C(=O)N(C)c3ccccc32)[C@@H](C)[C@@H]1[Si](C)(C)c1ccc(C)cc1 ?
A. band A

Q. // bin(item) where item = COc1ccc([Si](C)(C)[C@@H]2[C@@H](CCO)O[C@]3(C(=O)N(Cc4cccc(N5C(=O)c6ccccc6Oc6ccccc65)c4)c4ccccc43)[C@H]2C)cc1
A. band B

Q. Hi, small favor: classify C=CC[C@@]12N=C(c3ccc(OCCCO)cc3)O[C@@H]1c1ccccc1N(CCS(=O)(=O)c1ccccc1)C2=O by its z-score when you get a moment.
A. band A

Q. For this molecule, which bin applies? C=C(COC)/C(=C/C[C@@H](OC(=O)c1ccncc1)c1ccc(OCCO)cc1)c1cnc2ccccc2c1
A. band C

Q. Lab note: which band did O=C1NCC(=O)N2[C@@H]1C[C@@H](C(=O)O)[C@H]2c1ccc(O)cc1 land in?
A. band C

Q. Hi, small favor: classify C[C@]1(C(=O)NCCN2CCOCC2)c2ccccc2C(=O)N(Cc2ccc(OC(F)(F)F)cc2)[C@H]1c1ccc(CO)cc1 by its z-score when you get a moment.
A. band A

Q. Each molecule maps to one class by z-score. Which class for O=C(CCCCCCC(=O)Nc1ccccc1)N/N=C/c1ccccc1 ?
A. band B

Q. Each molecule maps to one class by z-score. Which class for COC(=O)[C@@]1(Cc2ccccc2)[C@H]2c3cc(C(=O)N4CCCC4)n(Cc4cc(F)cc5c4OCOC5)c3C[C@H]2CN1C(=O)c1ccccc1 ?
A. band C

Q. Kindly state the category for this molecule: CC(C)N1C(=O)[C@@]2(c3ccc([N+](=O)[O-])cc3)CC(=O)N(C3CCCCC3)[C@@H]2c2ccc(CO)cc21
A. band B

* * *

This section presents molecules with their documented composite z-score values.
Molecular target: Dickkopf-related protein 1 (Homo sapiens) (UniProt O94907)
Sequence (O94907 whole entry, looked up): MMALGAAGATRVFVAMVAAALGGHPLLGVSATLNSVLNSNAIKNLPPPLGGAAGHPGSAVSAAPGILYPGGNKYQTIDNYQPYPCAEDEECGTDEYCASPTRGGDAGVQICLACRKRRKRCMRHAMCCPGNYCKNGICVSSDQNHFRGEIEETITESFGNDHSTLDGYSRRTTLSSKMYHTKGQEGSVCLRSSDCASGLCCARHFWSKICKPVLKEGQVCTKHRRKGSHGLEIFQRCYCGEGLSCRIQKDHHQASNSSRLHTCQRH
Test: DKK1 binders on small-molecule microarrays, primary screen, biochemical, small-molecule microarray, 635 nm fluorescence scan (AID 1106);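 note: score merges emission near 667 nm with signal to noise over three replicate slides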
Conditions: DKK1 binding, higher = more signal
Answer as a number with no unit attached.

Past entries and their recorded results:
molecule=[N-]=[N+]=Nc1ccccc1C[C@@]1(C(=O)O)N=C(c2ccc(OCCCO)cc2)O[C@@H]1c1ccccc1 assayed_target="Dickkopf-related protein 1 (Homo sapiens) (UniProt O94907)" reading=-0.829
molecule=O=C1O[C@H](c2ccccc2)[C@H](c2ccccc2)N2[C@H]1[C@@H](C(=O)O)[C@]1(C(=O)Nc3ccccc31)[C@H]2c1ccc(O)cc1 assayed_target="Dickkopf-related protein 1 (Homo sapiens) (UniProt O94907)" reading=-0.836

Could you now look at the following molecule, please?
Q. Could you share which composite z-score value was measured for COC(=O)[C@@]1(Cc2ccc(F)cc2)[C@H]2c3cc(C(=O)N4CCCC4)n(CCc4c[nH]c5ccc(OC)cc45)c3C[C@H]2CN1C(=O)c1ccccc1 ?
A. 0.0605

* * *

Reported composite z-score values for the following compounds.
Molecular target: Neurogenic locus notch homolog protein 3 (Homo sapiens)
Assay: NOTCH3 binders on small-molecule microarray, primary screen, biochemical, 635/667 nm fluorescence (AID 1096)
Settings: NOTCH3 binding, 635 nm fluorescence, higher = more signal

Observe how each entry below is paired with its result.
compound=Cc1ccc(S[C@]2(C(=O)NCc3ccccc3)CC(=O)N(C(C)C)[C@@H]2c2ccc(CO)cc2I)cc1 assayed_target="Neurogenic locus notch homolog protein 3 (Homo sapiens)" reading=-0.44
compound=CO[C@H]1O[C@H](CO)[C@@H](OC(=O)Nc2ccc(Oc3ccccc3)cc2)[C@H](OC(=O)Nc2ccccc2-c2ccccc2)[C@@H]1OC(=O)Nc1ccccc1-c1ccccc1 assayed_target="Neurogenic locus notch homolog protein 3 (Homo sapiens)" reading=1.12
compound=CC(C)CNC(=O)[C@@]1(c2ccc([N+](=O)[O-])cc2)CC(=O)N(C2CCCCC2)[C@@H]1c1ccc(CO)cc1I assayed_target="Neurogenic locus notch homolog protein 3 (Homo sapiens)" reading=0.636
compound="CC(CO)N1C(=O)[C@@H]2C3C(=O)OCCC/C=C\\[C@H]3OC23C=CCN(Cn2nnc4ccccc42)C(=O)[C@@H]13 (stereo partly specified)" assayed_target="Neurogenic locus notch homolog protein 3 (Homo sapiens)" reading=0.219
compound=CCOC(=O)C[C@H]1[C@H](OC(=O)c2ccccc2-c2ccccc2)[C@@H](NC(=O)c2ccc3ccccc3n2)c2cc(OCCCO)ccc2N1C(=O)c1ccc2ccccc2n1 assayed_target="Neurogenic locus notch homolog protein 3 (Homo sapiens)" reading=0.598

Q. Checklist item: composite z-score tested on Neurogenic locus notch homolog protein 3 (Homo sapiens), entry COc1ccc([Si](C)(C)[C@@H]2[C@@H](CCO)O[C@]3(C(=O)N(Cc4cccc(N5C(=O)c6ccccc6Oc6ccccc65)c4)c4ccccc43)[C@H]2C)cc1 , value?
A. 0.0578

* * *

Assay: small-molecule microarray binders of probe aLefty2, primary screen, biochemical, biotinylated probe, 635/667 nm fluorescence (AID 1094);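 note: score merges spot fluorescence near 667 nm with spot signal-to-noise ratio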
Settings: higher = more signal
Binary call on composite z-score: condition met from 0.06 upward, condition not met beneath that.

compound="C[C@H]1C2=C3C(CC[C@H]4C(OCc5ccc(F)cc5C(F)(F)F)OC[C@](C)([C@@H]34)N(C(=O)OC(C)(C)C)C2)C2COC(=O)OCC21 (some centres not stated)" category="condition met"

Q. State whether the measured composite z-score reaches 0.06, counting equality as reaching it, for CN(C)CCCCNC(=O)[C@H]1C[C@H]2C(=O)N3CCC[C@H]3C(=O)N2[C@H]1c1ccc(O)cc1
A. condition not met

Q. Is reported composite z-score greater than or equal to 0.06 here: COc1ccc(NC(=O)O[C@H]2[C@H](OC(=O)Nc3ccc4c(c3)OCO4)[C@@H](OC(=O)Nc3ccc4c(c3)OCO4)[C@@H](OC)O[C@@H]2CO)cc1
A. condition not met

Q. Test whether the compound COC(=O)[C@@]1(Cc2ccccc2)[C@H]2c3cc(C(=O)N4CCCC4)n(Cc4ccsc4Br)c3C[C@H]2CN1C(=O)c1ccccc1 records composite z-score of 0.06 or higher.
A. condition met

Q. For this compound, is measured composite z-score 0.06 or higher? O=C1O[C@@H](c2ccccc2)[C@@H](c2ccccc2)N2[C@@H](c3ccccc3OCCO)[C@]3(C(=O)Nc4ccccc43)[C@@H](C(=O)NC[C@H](O)c3ccccc3)[C@H]12
A. condition not met

Q. Check the entry CC(C)(C)OC(=O)CC[C@@]1(C(=O)O)N=C(c2ccc(OCCCO)cc2)O[C@@H]1c1ccccc1CN=[N+]=[N-] : does composite z-score equal or exceed 0.06?
A. condition met

Q. Check the entry COCC(=C=CC[C@H](O)c1cccc(OCCO)c1)C[C@H](O)c1ccccn1 : does composite z-score equal or exceed 0.06?
A. condition not met

Q. Confirm if composite z-score reported for the compound COc1ccccc1CN1C(=O)c2ccccc2[C@@H](C(=O)NC(C)C)[C@@H]1c1ccc(CO)cc1 is 0.06 or above.
A. condition met

Q. In plain terms: is recorded composite z-score at least 0.06 for C=CCOC(=O)[C@H]1[C@@H]2C(=O)O[C@@H](c3ccccc3)[C@@H](c3ccccc3)N2[C@@H](c2ccc(OCCOC(=O)[C@H]3C[C@H]4C(=O)N[C@@H](Cc5ccccc5)C(=O)N4[C@H]3c3ccc(O)cc3)cc2)[C@]12C(=O)Nc1ccc(I)cc12 ?
A. condition not met

Q. Entry COc1cc2c(cc1OC)CN(C(=O)[C@@H]1[C@H]3C(=O)O[C@H](c4ccccc4)[C@H](c4ccccc4)N3[C@H](c3ccccc3OCCO)[C@@]13C(=O)Nc1ccc(C#CC4(O)CCCCCC4)cc13)CC2 : is its composite z-score no less than 0.06?
A. condition not met

Q. Entry COCCOC(=O)N1C(=O)[C@@]2(c3cc(C#Cc4ccc(OC)cc4)ccc31)[C@H](C(=O)N1CCCCCCC1)[C@H]1C(=O)O[C@H](c3ccccc3)[C@H](c3ccccc3)N1[C@@H]2c1ccc(O)cc1 : is its composite z-score no less than 0.06?
A. condition met

Q. Record C=C[C@@H](COC(C)=O)NS(=O)(=O)c1ccc(Br)cc1 ; criterion: composite z-score no lower than 0.06. Met?
A. condition not met

Q. Would you say CCOC(=O)C[C@H]1[C@H](OC(=O)Cc2ccc3c(c2)OCO3)[C@@H](NC(=O)C2CCCCC2)c2cc(OCCCO)ccc2N1C(=O)c1ccc2ccccc2n1 shows composite z-score at minimum 0.06?
A. condition not met

Q. Identify whether the reported composite z-score of the following compound is 0.06 or greater: COc1ccc(C#Cc2ccc3c(c2)[C@]2(C(=O)N3)[C@H](C(=O)N3CCc4cc(OC)c(OC)cc4C3)[C@H]3C(=O)O[C@H](c4ccccc4)[C@H](c4ccccc4)N3[C@@H]2c2ccc(O)cc2)cc1
A. condition not met

Q. Answer whether composite z-score of COc1cc2c(cc1OC)CN(C(=O)[C@H]1[C@@H]3C(=O)O[C@@H](c4ccccc4)[C@@H](c4ccccc4)N3[C@@H](c3ccc(OCCO)cc3)[C@]13C(=O)Nc1ccc(C#CCCO)cc13)CC2 is greater than or equal to 0.06.
A. condition not met

Q. Is composite z-score for COCCOC(=O)N1C(=O)[C@@]2(c3ccccc31)[C@H](C(=O)N1CCN(c3ncccn3)CC1)[C@H]1C(=O)O[C@H](c3ccccc3)[C@H](c3ccccc3)N1[C@@H]2c1ccc(OCCO)cc1 at or above 0.06?
A. condition met

Q. Tell me whether composite z-score is at least 0.06 here: C=CC[C@@]12N=C(c3ccc(OCCCO)cc3)O[C@@H]1c1ccccc1N(CCS(=O)(=O)c1ccccc1)C2=O
A. condition not met

Q. Could you please find out whether O=c1cccc(-c2ccc(C(F)(F)F)cc2)o1 has composite z-score that meets 0.06 or exceeds it?
A. condition not met

Q. Kindly determine if composite z-score recorded for CO[C@H]1O[C@H](CO)[C@@H](OC(=O)Nc2ccc(C(F)(F)F)cc2)[C@H](OC(=O)Nc2ccc3c(c2)OCO3)[C@H]1OC(=O)Nc1ccc2c(c1)OCO2 is above or exactly 0.06.
A. condition met

Q. Say whether COCCCNC(=O)[C@@]1(Sc2ccc(C)cc2)CC(=O)N(C2Cc3ccccc3C2)[C@@H]1c1ccc(CO)cc1I shows composite z-score of 0.06 or more.
A. condition not met

Q. # check: composite z-score of CC(CO)N1C(=O)[C@@H]2C3C(=O)OCCC/C=C\[C@H]3OC23C=CCN(Cn2nnc4ccccc42)C(=O)[C@@H]13 (some centres not stated) is greater than or equal to 0.06
A. condition not met

Q. // inclusive: composite z-score at least 0.06? input: [N-]=[N+]=Nc1ccccc1C[C@@]1(C(=O)O)N=C(c2ccc(OCCCO)cc2)O[C@@H]1c1ccccc1
A. condition met

Q. Confirm if composite z-score reported for the compound CC(=O)NCCCC[C@@H]1NC(=O)[C@@H]2C[C@H](C(=O)O)[C@H](c3ccc(O)cc3)N2C1=O is 0.06 or above.
A. condition not met

Values from PubChem BioAssay
